molecular target: T1, human IL-6 (human, UniProt P05231 30-212); test: SPR Biacore, supernatant Ab on Protein A chip, 37 C
T1 construct: IL-6 flowed over captured antibodies
T1 sequence (P05231 30-212 limits assumed): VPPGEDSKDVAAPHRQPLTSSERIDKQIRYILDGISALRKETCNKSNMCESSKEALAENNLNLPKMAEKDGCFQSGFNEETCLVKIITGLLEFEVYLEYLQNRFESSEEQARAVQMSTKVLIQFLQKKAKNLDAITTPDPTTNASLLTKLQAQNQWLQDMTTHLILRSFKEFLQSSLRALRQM
pKd: −log10 of the molar value.
Measurement name: pKd

Binder	Value observed
anti-IL-6 antibody, heavy chain T63V, G66D / light chain M32L, M50D, N52S, M88Q (antibody, IgG1, V domains shown, Full IgG1 (Expi293); VL = variant III) VH: EVQLVESGGGLVQPGGSLRLSCAASGFTFSPFAMSWVRQAPGKGLEWVAKISPGGSWTYYSDVVTDRFTFSLDTSKSTAYLQMNSLRAEDTAVYYCARQLWGYYALDIWGQGTLVTVSS VL: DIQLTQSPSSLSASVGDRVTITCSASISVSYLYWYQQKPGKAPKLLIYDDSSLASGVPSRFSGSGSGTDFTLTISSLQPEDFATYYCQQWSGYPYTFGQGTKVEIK	9.56
anti-IL-6 antibody, heavy chain I51D, G66D / light chain M32L, M50D, N52S, M88Q (antibody, IgG1, V domains shown, Full IgG1 (Expi293); VL = variant III) VH: EVQLVESGGGLVQPGGSLRLSCAASGFTFSPFAMSWVRQAPGKGLEWVAKDSPGGSWTYYSDTVTDRFTFSLDTSKSTAYLQMNSLRAEDTAVYYCARQLWGYYALDIWGQGTLVTVSS VL: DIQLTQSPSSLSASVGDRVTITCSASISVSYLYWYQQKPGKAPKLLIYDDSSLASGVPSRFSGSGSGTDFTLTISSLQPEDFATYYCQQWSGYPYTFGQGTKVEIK	8.02
